Data origin, for the record: patent US8952024B2

test system: ragweed (common ragweed, Ambrosia elatior); assay: Test B pre-/postemergence plant response; type: in vivo; details: Preemergence, 125 g ai/ha; 0 to 100 scale
Provide the reported Ragweed plant response rating of each item.
Keep it simple and answer with nothing but the number.

**Query** Could you tell me which Ragweed plant response rating is on file for Cc1ccc(-n2c(-c3cccc(Cl)c3)ncc(C(=O)C3=C(O)CCCC3=O)c2=O)cc1 [Compound 39] ?
**Result** 75

**Query** Could you tell me which Ragweed plant response rating is on file for Cc1cc(F)ccc1-n1c(-c2ccccc2)ncc(C(=O)C2=C(O)CCCC2=O)c1=O [Compound 48] ?
**Result** 90

**Query** Could you tell me which Ragweed plant response rating is on file for O=C1CCCC(O)=C1C(=O)c1cnc(-c2ccccc2)n(-c2ccccc2)c1=O [Compound 2] ?
**Result** 98

**Query** Could you tell me which Ragweed plant response rating is on file for Cc1c(F)cccc1-n1c(-c2ccccc2)ncc(C(=O)C2=C(O)CCCC2=O)c1=O [Compound 47] ?
**Result** 90

**Query** Could you tell me which Ragweed plant response rating is on file for Cc1ccc(F)c(-n2c(-c3ccccc3)ncc(C(=O)C3=C(O)CCCC3=O)c2=O)c1 [Compound 51] ?
**Result** 80

**Query** Could you tell me which Ragweed plant response rating is on file for O=C1CCCC([O-])=C1C(=O)c1cnc(-c2ccccc2)n(-c2ccccc2)c1=O.[K+] [Compound 14] ?
**Result** 90

**Query** Could you tell me which Ragweed plant response rating is on file for O=C1CCCC(O)=C1C(=O)c1cnc(-c2cccc(Cl)c2)n(-c2ccccc2)c1=O [Compound 34] ?
**Result** 90

**Query** Could you tell me which Ragweed plant response rating is on file for Cc1cccc(-n2c(-c3ccccc3)ncc(C(=O)C3=C(O)CCCC3=O)c2=O)c1C [Compound 27] ?
**Result** 100

----------
Provide the reported Plant response rating, Wheat of each item.
tested on: wheat (Triticum aestivum); assay: Test A pre-/postemergence plant response; format: in vivo; conditions: Preemergence, 500 g ai/ha; visual injury, 0 to 100 scale (0 no effect, 100 complete control), approx. ten days

**Query** Could you tell me which Plant response rating, Wheat is on file for CCCc1ncc(C(=O)C2=C(O)CCCC2=O)c(=O)n1CCC ?
**Result** 0

**Query** Could you tell me which Plant response rating, Wheat is on file for Cc1cccc(-n2c(-c3cccc(Cl)c3)ncc(C(=O)C3=C(O)CCCC3=O)c2=O)c1 ?
**Result** 20

**Query** Could you tell me which Plant response rating, Wheat is on file for CC(C)c1ncc(C(=O)C2=C(O)CCCC2=O)c(=O)n1-c1ccccc1 ?
**Result** 40

**Query** Could you tell me which Plant response rating, Wheat is on file for CCCCc1ncc(C(=O)C2=C(O)CCCC2=O)c(=O)n1-c1ccccc1C ?
**Result** 10

**Query** Could you tell me which Plant response rating, Wheat is on file for O=C1CCCC(O)=C1C(=O)c1cnc(-c2ccccc2)n(-c2ccc(F)cc2)c1=O ?
**Result** 20

**Query** Could you tell me which Plant response rating, Wheat is on file for Cc1ccc(-n2c(-c3ccccc3)ncc(C(=O)C3=C(O)CCCC3=O)c2=O)c(Cl)c1 ?
**Result** 0

----------
Provide the reported Plant response rating, Cupgrass, Woolly of each item.
test system: woolly cupgrass (Eriochloa villosa); assay: Test B pre-/postemergence plant response; format: in vivo; conditions: Postemergence, 31 g ai/ha; 0 to 100 scale (0 no effect, 100 complete control)
Keep it simple and answer with nothing but the number.

**Query** Tell me reported Plant response rating, Cupgrass, Woolly for CCc1cccc(-n2c(-c3ccccc3)ncc(C(=O)C3=C(O)CCCC3=O)c2=O)c1 , tested with woolly cupgrass (Eriochloa villosa).
**Result** 60

**Query** Tell me reported Plant response rating, Cupgrass, Woolly for Cc1ccc(-n2c(-c3cc(F)cc(F)c3)ncc(C(=O)C3=C(O)CCCC3=O)c2=O)cc1 , tested with woolly cupgrass (Eriochloa villosa).
**Result** 90

**Query** Tell me reported Plant response rating, Cupgrass, Woolly for COCCCn1c(-c2cc(F)cc(F)c2)ncc(C(=O)C2=C(O)C3CCC(C3)C2=O)c1=O (stereo not drawn) , tested with woolly cupgrass (Eriochloa villosa).
**Result** 100

**Query** Tell me reported Plant response rating, Cupgrass, Woolly for O=C1CCCC(O)=C1C(=O)c1cnc(-c2ccccc2)n(C2CCOCC2)c1=O , tested with woolly cupgrass (Eriochloa villosa).
**Result** 80

**Query** Tell me reported Plant response rating, Cupgrass, Woolly for O=C1CCCC(O)=C1C(=O)c1cnc(-c2ccccc2)n(C2CCCCCC2)c1=O , tested with woolly cupgrass (Eriochloa villosa).
**Result** 80

**Query** Tell me reported Plant response rating, Cupgrass, Woolly for COCCCn1c(-c2cccc(F)c2)ncc(C(=O)C2=C(O)CCCC2=O)c1=O , tested with woolly cupgrass (Eriochloa villosa).
**Result** 65
